Origin of measurements: the Human Domainome abundance scans (Beltran et al. 2025)

B1: Chromodomain-helicase-DNA-binding protein 5, residues 411 to 463; numbered along this chain, Q8TDI0 (parent)
chain: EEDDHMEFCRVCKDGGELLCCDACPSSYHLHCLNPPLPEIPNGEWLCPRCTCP

Variants of: B1
Assay: abundance fitness (aPCA) (normalised: wild type 0, dead -1); higher = more abundant; growth selection in yeast, the domain comes from the species named
Conditions: Homo sapiens
Where abundance fitness equals or exceeds -0.6, the correct label is 1 (yes); where it does not, the label is 0 (no).

variant_annotation=D22E assigned_category="1 (yes)"
variant_annotation=P53R assigned_category="0 (no)"

[in] Kindly determine if abundance fitness recorded for L18T is above or exactly -0.6.
[out] 1 (yes)

[in] Kindly determine if abundance fitness recorded for I40H is above or exactly -0.6.
[out] 1 (yes)

[in] Kindly determine if abundance fitness recorded for L18P is above or exactly -0.6.
[out] 0 (no)
